Origin of values: patent US20250027068

Recorded measurements of Enzyme Activity Endpoint Assay (purified): IgG, one per entry
# test_target: pooled human IgG
Note: unit ng/µL is implicit; provide only the numeric part.

See these solved cases before continuing.
protein	uom	data_value
PRT-532 (protein) MANQEIRYSEETPKTITSIWTKGVTPPTDFIKNEDVLHAPYIANQGWYDITKTFNGKDDLLCGAATAGNMLHWWFDQNKEEIENYLKKHPEKQKINFNGEQMFDVKEAIDTKDSQTDSKLFEYFKDKAFPYLSTKHLGVMPDLVLDMFINGYYLSLGKHGPTPVKRGTKDPRGGIFDAVFTRGDQSKLLTARHDFKEKTLNEISDLIKQELTEGKALALSHTYANVRINHVINLWGADFNSEGNLEAIYVTDSDSNASIGMKKYYVGVNAAGKVAISAKEIEGDNIGAQVLGLFTLSTGQDIWNQTNLEHHHHHH	ng/µL	506
PRT-314 (protein) MQITSVWTKGVTPLTPEQFRENNEDVIHAPYLAHQGWYDITKAFDGKDNLLCGAATAGNMLHWWFDQNKTEIEAYLSKHPEKQKIIFGNQELFDLKAAIDTKDSQTNSQLFDYFRDKAFPNLSARQLGVMPDLVLDMFINGYYLNVGKTQSTDVNRPYQDKDKRGGIFDAVFTRGDQTTLLTARHDLKNKGLNDISTIIKQELTEGRALALSHTYANVSISHVINLWGADFNAEGELEAIYVTDSDANPSIGMKKYFVGRNAHGHVAISAKKIEGENIGAQVLGLFTLSSGKDQWQKLS	ng/µL	101
PRT-121 (protein) MRNATEAYNEDTPKQITSVWTKGVTPPTPEQFRKYNEDVLHAPYIANQGWYDITKTFNGKDDLLCGAATAGNMLHWWFDQNKTEIEAYLSKYPEKQKIIFNNQELFDLRAAIDTKDSQTNSALFNYFRDKAFPNLSARQLGVMPDLVLDMFINGYYLNVTKTQSTDVNRPYQTKDKRGGIFDAVFTRGDQTTLLTSRHDLKNKTLNEISDLIKQELTEGKALALSHTYANVSISHVINLWGADFNAEGNLEAIYVTDSDANASIGMKKYFVGVNAAGKVAISAKKIEGENIGAQVLGLFTLSTGKDIWEKLS	ng/µL	0
PRT-305 (protein) MVTSVWTKGVTPPTDFIKGEDVFHAPYKAGQGWYDITKEFNGKDDLLCGAATAGNMLHWWFDQNKEYIEAYLKKHPEKQKIMFGDQELLDVRKAINTKGSQKNSELFNYFRDKAFPNLSARRLGVMPDLVLDMFINGYYLNVTKTQTTDVNRTYQEKDKRGGIFDAVFTRGDQSKLLTSRHDFKEKGLKEISDLIKQELTEGKALGLSHTYANVRIGHVINLWGADFDSDGNLKAIYVTDSDSNASIGMKKYGVGVNSAGKVAISAKEIKEDNIGAQVLGLFTLSTGQDIWNQTN	ng/µL	91
PRT-141 (protein) MRNATEAYAKEVPHQITSVWTKGVTPLTPEQFRYNNEDVIHAPYLAHQGWYDITKAFDGKDNLLCGAATAGNMLHWWFDQNKTEIEAYLSKHPEKQKIIFNNQELFDLKAAIDTKDSQTNSQLFNYFRDKAFPNLSARQLGVMPDLVLDMFINGYYLNVFKTQSTDVNRPYQDKDKRGGIFDAVFTRGDQTTLLTARHDLKNKGLNDISTIIKQELTEGRALALSHTYANVSISHVINLWGADFNAEGNLEAIYVTDSDANASIGMKKYFVGINAAGHVAISAKKIEGENIGAQVLGLFTLSSGKDIWQKLS	ng/µL	0
PRT-65 (protein) MANQEIRYSEVTPYHVTSVWTKGVTPPANFTQGEDVFHAPYVANQGWYDITKTFNGKDDLLCGAATAGNMLHWWFDQNKDQIKRYLEEHPEKQKINFNGEQMFDVKEAIDTKNHQLDSKLFEYFKEKAFPYLSTKHLGVFPDLVIDMFINGYRLSLTNHGPTPVKEGSKDPRGGIFDAVFTRGDQSKLLTSRHDFKEKNLKEISDLIKKELTEGKALGLSHTYANVRINHVINLWGADFDSNGNLKAIYVTDSDSNASIGMKKYFVGVNSAGKVAISAKEIKEDNIGAQVLGLFTLSTGQDSWNQTN	ng/µL	26
PRT-322 (protein) MTITSVWTKGVTPPTPEDFRENNEDVLHAPYVANQGWYDITKTFDGKDNLLCGAATAGNMLHWWFDQNKEEIERYLKKHPEKQKIIFNNQELFDVKAAIDTKDSQTNSKLFDYFRDKAFPNLSARQLGVMPDLVLDMFINGYYLNLGKTQSTDVNRPYQDKDKRGGIFDAVFTRGDQTTLLTARHDLKNKGLNEISDLIKQELTEGKALALSHTYANVRINHVINLWGADFDAEGNLIAIYVTDSDANASIGMKKYFVGRNANGKVAISAKKIEGDNIGAQVLGLFTLSTGQDQWQKLS	ng/µL	387

Enzyme Activity Endpoint Assay (purified): IgG for PRT-78 (protein) MANQEIRYSEETPYHVTSVWTKGVTPPADFTQGEDVFHAPYVANQGWYDITKTFNGKDDLLCGAATAGNMLHWWFDQNKEYIEAYLKKHPEKQKIMFGDQELLDVRKAINTKGSQKNSELFNYFRDKAFPNLSARRLGVMPDLVLDMFINGYYLNVTKTQTTDVNRTYQEKDKRGGIFDAVFTRGDQSKLLTSRHDFKEKGLKEISDLIKQELTEGKALGLSHTYANVRINHVINLWGADFDSDGNLKAIYVTDSDSNASIGMKKYFVGVNSAGKVAISAKEIKEDNIGAQVLGLFTLSTGQDIWNQTN is 21
